ENDPOINT_LABEL: melting point

Example molecules with recorded melting point:
MOLECULE: Cn1cc(C(=O)O)ccc1=O
melting point: 236 to 238 °C
//
MOLECULE: Clc1ccc(OC2CCCNC2)nc1 (configuration not stated)
melting point: 64 to 66 °C
//
MOLECULE: NC(=O)NC1(C(=O)O)CCCCC1
melting point: 179 to 181 °C
//
MOLECULE: C=CCN(CC=C)C(=O)c1ccc(N)cc1
melting point: 104 to 106 °C
//
MOLECULE: NN1C(=O)CNC1=O
melting point: 190 to 192 °C

Input: Please look at this molecule and report its melting point: Nc1cc(=O)[nH]c(=O)n1Cc1ccccc1
Output: 284 to 286 °C

Input: Please look at this molecule and report its melting point: CN(C)C(=O)COc1cccc(N)c1
Output: 100 to 102 °C

###

This section presents compounds with their documented melting point values.

Example compounds with recorded melting point:
COMPOUND: CC(=O)Oc1cc(C(=O)O)cc(OC(C)=O)c1OC(C)=O
ENDPOINT_LABEL: melting point
RESULT: 163 to 165 °C
--
COMPOUND: O=C(O)CCn1ccc2ccccc21
ENDPOINT_LABEL: melting point
RESULT: 49 to 51 °C
--
COMPOUND: Nc1ccc(F)c(S(=O)(=O)Nc2ccc(Br)cc2)c1
ENDPOINT_LABEL: melting point
RESULT: 161 to 163 °C
--
COMPOUND: O=C(O)C1CCN(C(=O)c2ccc3[nH]ncc3c2)CC1
ENDPOINT_LABEL: melting point
RESULT: 246 to 248 °C
--
COMPOUND: Fc1ccc(CBr)c2ncccc12
ENDPOINT_LABEL: melting point
RESULT: 94 to 96 °C
--
COMPOUND: O=C(O)Cc1csc(-c2ccccc2)n1
ENDPOINT_LABEL: melting point
RESULT: 89 to 91 °C

Input: Please look at this compound and report its melting point: Cn1nc(Br)c2c(NCCN)ncnc21
Output: 120 to 122 °C

Input: Please look at this compound and report its melting point: CC(O)c1c(Cl)nc2ccccn12 (stereo not drawn)
Output: 132 to 134 °C

Input: Please look at this compound and report its melting point: c1ccc(-c2nnc3n2CCNC3)cc1
Output: 159 to 161 °C

Input: Please look at this compound and report its melting point: NC1CCS(=O)(=O)c2ccc(Cl)cc21 (stereo not drawn)
Output: 57 to 59 °C

Input: Please look at this compound and report its melting point: O=C(CCCl)Nc1ccc2[nH]c(=O)[nH]c2c1
Output: 299 to 301 °C

Input: Please look at this compound and report its melting point: COc1ccc(Cl)cc1C1(CN)CCOCC1
Output: 100 to 102 °C

Input: Please look at this compound and report its melting point: Nc1cc(C(F)(F)F)ccc1N1CC(C(F)(F)F)OC1=O (stereo not drawn)
Output: 99 to 101 °C

Input: Please look at this compound and report its melting point: COC(=O)c1sc(C)c(Br)c1O
Output: 95 to 97 °C

Input: Please look at this compound and report its melting point: CC(C)c1nc(C(=O)O)nn1-c1ccccc1F
Output: 159 to 161 °C

###

This section presents molecules with their documented melting point values.

Example molecules with recorded melting point:
MOLECULE: CC1NC(=O)c2ccccc2NC1=O (configuration not stated)
RESULT: 337 to 339 °C
//
MOLECULE: CCOCCS(N)(=O)=O
RESULT: 30 to 32 °C
//
MOLECULE: Cc1ccc(-n2c(C)ccc2C)cc1N
RESULT: 83 to 85 °C
//
MOLECULE: O=S(=O)(Cl)c1ccccc1-c1ccccc1
RESULT: 94 to 96 °C
//
MOLECULE: CSC(C(=O)O)C(C)(C)C (configuration not stated)
RESULT: 83 to 85 °C

Input: Please look at this molecule and report its melting point: Nc1ccc(-n2cnnn2)cc1
Output: 140 to 142 °C

Input: Please look at this molecule and report its melting point: Clc1nnc(-c2cccs2)c2ccccc12
Output: 128 to 130 °C

Input: Please look at this molecule and report its melting point: CCOc1c(Br)cc(C=O)cc1OC
Output: 84 to 86 °C

Input: Please look at this molecule and report its melting point: O=c1cc2c(n[nH]1)CCOC2
Output: 218 to 220 °C

Input: Please look at this molecule and report its melting point: O=C(O)c1cccc(OC2CCCCC2)c1
Output: 75 to 77 °C

Input: Please look at this molecule and report its melting point: O=C(O)C=Cc1ccc(Oc2cccnc2)c(F)c1
Output: 202 to 204 °C

Input: Please look at this molecule and report its melting point: Fc1ccc(-c2nnc(S)o2)cc1
Output: 204 to 206 °C

Input: Please look at this molecule and report its melting point: CCC(C)C(NC1=NS(=O)(=O)c2ccccc21)C(=O)O (configuration not stated)
Output: 203 to 205 °C

Input: Please look at this molecule and report its melting point: COc1ccc2ccccc2c1-c1cc(CBr)on1
Output: 85 to 87 °C

Input: Please look at this molecule and report its melting point: Cc1cc(C=O)c(C)n1Cc1ccco1
Output: 87 to 89 °C

Input: Please look at this molecule and report its melting point: Nc1ccc(Sc2ccccn2)c(Cl)c1
Output: 110 to 112 °C

Input: Please look at this molecule and report its melting point: Nc1c(F)cccc1Oc1ccccc1
Output: 51 to 53 °C

###

This section presents compounds with their documented melting point values.

COMPOUND: O=C(O)c1c[nH]nc1-c1ccc(F)c(Cl)c1
melting point: 282 to 284 °C
//
COMPOUND: CC(C)n1ccc(C(=O)O)n1
melting point: 77 to 79 °C
//
COMPOUND: CC(=O)NS(=O)(=O)Cl
melting point: 92 to 94 °C
//
COMPOUND: O=c1[nH]c2ccc(NCc3ccccc3Cl)cc2[nH]1
melting point: 227 to 229 °C
//
COMPOUND: Cc1cccc2[nH]cc(C=O)c12
melting point: 188 to 190 °C

Input: Please look at this compound and report its melting point: CS(=O)(=O)Nc1ccc(S(=O)(=O)Cl)c(F)c1
Output: 149 to 151 °C

Input: Please look at this compound and report its melting point: O=C(O)c1cnn(-c2ccccc2)c1Br
Output: 214 to 216 °C

Input: Please look at this compound and report its melting point: Nc1noc(-c2ccc(Cl)cc2)n1
Output: 255 to 257 °C

Input: Please look at this compound and report its melting point: CC(O)c1cn(CC(=O)O)nn1 (configuration not stated)
Output: 134 to 136 °C

Input: Please look at this compound and report its melting point: O=C(NCc1ccc2c(c1)OCO2)n1ccnc1
Output: 108 to 110 °C

###

This section presents molecules with their documented melting point values.

Example molecules with recorded melting point:
MOLECULE: COc1ccc(-c2cc(C(=O)O)nn2-c2ccccc2)cc1
melting point: 198 to 200 °C

MOLECULE: NC(=O)c1cc(=NCC2CCCO2)cc[nH]1 (stereo not given)
melting point: 123 to 125 °C

Input: Please look at this molecule and report its melting point: O=C(O)CCCc1nc2ccccc2c(=O)[nH]1
Output: 269 to 271 °C

Input: Please look at this molecule and report its melting point: COc1ccc2[nH]cc(C(=O)CC#N)c2c1
Output: 289 to 291 °C

Input: Please look at this molecule and report its melting point: CC(C)(C)OC(=O)NC(CCS(C)(=O)=O)C(=O)O (stereo not given)
Output: 99 to 101 °C

###

This section presents compounds with their documented melting point values.

Example compounds with recorded melting point:
COMPOUND: Cc1cc2c(Cl)ncnc2s1
melting point: 79 to 81 °C
--
COMPOUND: COCc1cc([N+](=O)[O-])ccc1Cl
melting point: 43 to 45 °C
--
COMPOUND: Cc1[nH][nH]c(=O)c1CCO
melting point: 183 to 185 °C
--
COMPOUND: Cc1noc2nc(C(C)C)cc(C(=O)O)c12
melting point: 158 to 160 °C
--
COMPOUND: O=c1c2ccccc2nc(S)n1Cc1ccc(Cl)cc1
melting point: 221 to 223 °C

Input: Please look at this compound and report its melting point: O=C(O)c1c2c(nc3ccccc13)C(=Cc1ccc(Cl)c(Cl)c1)CC2
Output: 184 to 186 °C

Input: Please look at this compound and report its melting point: O=C(CCl)Nc1nncs1
Output: 233 to 235 °C

Input: Please look at this compound and report its melting point: NC1CCN(CC(=O)Nc2ccccc2)CC1
Output: 75 to 77 °C

Input: Please look at this compound and report its melting point: CNC(=O)COc1cccc(CC(=O)O)c1
Output: 128 to 130 °C

Input: Please look at this compound and report its melting point: CCOC(=O)c1cc(C)n(CC(=O)O)c1C
Output: 86 to 88 °C

Input: Please look at this compound and report its melting point: COC(=O)C(=O)CC(=O)c1cc(F)ccc1F
Output: 145 to 147 °C

Input: Please look at this compound and report its melting point: O=C(O)C1CCCc2[nH]ncc21 (centres undefined)
Output: 176 to 178 °C

Input: Please look at this compound and report its melting point: CCOC(=O)c1c(C)[nH]c(C(=O)CCl)c1C
Output: 188 to 190 °C

Input: Please look at this compound and report its melting point: CS(=O)(=O)c1cccc(Oc2ccc(N)cc2)c1
Output: 103 to 105 °C

Input: Please look at this compound and report its melting point: NS(=O)(=O)c1ccc2c(c1)CCN2
Output: 162 to 166 °C

Input: Please look at this compound and report its melting point: Cc1ccc(-c2ccccc2C(=O)O)cc1
Output: 146 to 148 °C

Input: Please look at this compound and report its melting point: O=C(Nc1ccccn1)c1cc2ccccc2cc1O
Output: 236 to 238 °C

Input: Please look at this compound and report its melting point: O=C(CSc1ccccc1C(=O)O)NC1CCCCCCC1
Output: 168 to 170 °C

Input: Please look at this compound and report its melting point: CCN1CCN(S(=O)(=O)c2ccc(Cl)c(C(=O)O)c2)CC1
Output: 189 to 191 °C
